Here, each record is paired with measured LD50 data.
# testDetails: in vivo
# conditionLabel: iv, read-out: Toxicity: LD50
quantity: LD50

compound | quantity | recordedResult
CNC(=O)Nc1ccc(OCC(O)CN2CCN(C(=O)/C=C/c3cc(OC)c(OC)c(OC)c3)CC2)c2c1CCCC2 (stereo not shown) [771 157] | LD50 | 210 mg/kg
COc1cc(/C=C/C(=O)N2CCN(CC(O)COc3ccc(NC(=O)NC4CCCCC4)c4c3OCCO4)CC2)cc(OC)c1OC (stereo not shown) [770 081] | LD50 | 148 mg/kg
COc1cc(/C=C/C(=O)N2CCCN(CC(O)COc3ccc(C(C)=O)cc3)CC2)cc(OC)c1OC (stereo not shown) [780 415] | LD50 | 305 mg/kg
COc1cc(C(C)=O)ccc1OCC(O)CN1CCN(C(=O)/C=C/c2cc(OC)c(OC)c(OC)c2)CC1 (stereo not shown) [770 073] | LD50 | 158 mg/kg
COc1cc(/C=C/C(=O)N2CCN(CC(O)COc3ccccc3Cl)CC2)cc(OC)c1OC (stereo not shown) [760 520] | LD50 | 157 mg/kg
COc1cc(OC)cc(OCC(O)CN2CCN(C(=O)/C=C/c3cc(OC)c(OC)c(OC)c3)CC2)c1 (stereo not shown) [760 620] | LD50 | 285 mg/kg
COc1cc(/C=C/C(=O)N2CCN(CC(O)COc3ccc(C(C)=O)c4c3OCCO4)CC2)cc(OC)c1OC (stereo not shown) [760 394] | LD50 | 214 mg/kg
CCOC(=O)c1ccc(OCC(O)CN2CCN(C(=O)/C=C/c3cc(OC)c(OC)c(OC)c3)CC2)cc1 (stereo not shown) [760 382] | LD50 | 260 mg/kg
CCOC(=O)Nc1ccc(OCC(O)CN2CCN(C(=O)/C=C/c3cc(OC)c(OC)c(OC)c3)CC2)c2c1OCCO2 (stereo not shown) [770 525] | LD50 | 325 mg/kg
COc1cc(/C=C/C(=O)N2CCN(CC(O)COc3ccc(NC(=O)N(C)C)c4c3OCCO4)CC2)cc(OC)c1OC (stereo not shown) [771 233] | LD50 | 310 mg/kg
COc1cccc(OCC(O)CN2CCN(C(=O)/C=C/c3cc(OC)c(OC)c(OC)c3)CC2)c1 (stereo not shown) [760 390] | LD50 | 227 mg/kg
COc1cc(/C=C/C(=O)N2CCN(CC(O)COCc3ccccc3)CC2)cc(OC)c1OC (stereo not shown) [770 276] | LD50 | 248 mg/kg
CNC(=O)Nc1ccc(OCC(O)CN2CCN(C(=O)/C=C/c3cc(OC)c(OC)c(OC)c3)CC2)cc1 (stereo not shown) [770 056] | LD50 | 160 mg/kg
COc1cc(/C=C/C(=O)N2CCN(CC(O)COc3ccc([N+](=O)[O-])c(C)c3)CC2)cc(OC)c1OC (stereo not shown) [770 963] | LD50 | 190 mg/kg
COc1cc(/C=C/C(=O)N2CCN(CC(O)COc3ccc(C(C)=O)c4c3OCCO4)CC2)cc(OC)c1OC(C)C (stereo not shown) [770 727] | LD50 | 130 mg/kg
COc1cc(/C=C/C(=O)N2CCN(CC(O)COc3c(OC)cccc3OC)CC2)cc(OC)c1OC (stereo not shown) [760 580] | LD50 | 294 mg/kg
COc1cc(/C=C/C(=O)N2CCN(CC(O)COc3cccc(C(C)=O)c3)CC2)cc(OC)c1OC (stereo not shown) [770 458] | LD50 | 250 mg/kg
CCOc1c(OC)cc(/C=C/C(=O)N2CCN(CC(O)COc3ccc(C(C)=O)c4c3OCCO4)CC2)cc1OC (stereo not shown) [770 504] | LD50 | 145 mg/kg
COc1cc(/C=C/C(=O)N2CCN(CC(O)CSc3ccccc3)CC2)cc(OC)c1OC (stereo not shown) [770 060] | LD50 | 195 mg/kg
COc1cc(/C=C/C(=O)N2CCN(CC(O)COc3cccc(C#N)c3)CC2)cc(OC)c1OC (stereo not shown) [760 784] | LD50 | 372 mg/kg
COc1cc(/C=C/C(=O)N2CCN(CC(O)COc3ccccc3C#N)CC2)cc(OC)c1OC (stereo not shown) [760 389] | LD50 | 245 mg/kg
COc1cc(/C=C/C(=O)N2CCN(CC(O)COc3cccc(OC)c3OC)CC2)cc(OC)c1OC (stereo not shown) [760 393] | LD50 | 319 mg/kg
COc1cc(/C=C/C(=O)N2CCN(CC(O)COc3ccc(Cl)cc3)CC2)cc(OC)c1OC (stereo not shown) [760 476] | LD50 | 185 mg/kg
COc1cc(/C=C/C(=O)N2CCN(CC(O)COc3cc(OC)c(OC)c(OC)c3)CC2)cc(OC)c1OC (stereo not shown) [760 506] | LD50 | 182 mg/kg
COc1cc(/C=C/C(=O)N2CCN(CC(O)COc3cccc4c3OCO4)CC2)cc(OC)c1OC (stereo not shown) [780 138] | LD50 | 150 mg/kg
CCc1ccc(OCC(O)CN2CCN(C(=O)/C=C/c3cc(OC)c(OC)c(OC)c3)CC2)c2c1OCCO2 (stereo not shown) [770 142] | LD50 | 116 mg/kg
COc1cc(/C=C/C(=O)N2CCN(CC(O)COc3ccc(C(C)=O)c4c3OCCO4)CC2)cc(OC)c1 (stereo not shown) [770 538] | LD50 | 198 mg/kg
COc1cc(/C=C/C(=O)N2CCN(CC(O)COc3ccc4c(c3)OCO4)CC2)cc(OC)c1OC (stereo not shown) [760 529] | LD50 | 115 mg/kg
CC(=O)c1ccc(OCC(O)CN2CCN(C(=O)/C=C/c3ccc(F)cc3)CC2)c2c1OCCO2 (stereo not shown) [770 199] | LD50 | 328 mg/kg
COc1cc(/C=C/C(=O)N2CCN(CC(O)CN(C)c3ccccc3)CC2)cc(OC)c1OC (stereo not shown) [770 495] | LD50 | 175 mg/kg
CNC(=O)c1ccc(OCC(O)CN2CCN(C(=O)/C=C/c3cc(OC)c(OC)c(OC)c3)CC2)c(OC)c1 (stereo not shown) [770 855] | LD50 | 260 mg/kg
